Ref: patent US5436260A

Entries below carry reported IC50 on AT1 receptor (Rattus norvegicus).
Sequence (P25095 whole entry): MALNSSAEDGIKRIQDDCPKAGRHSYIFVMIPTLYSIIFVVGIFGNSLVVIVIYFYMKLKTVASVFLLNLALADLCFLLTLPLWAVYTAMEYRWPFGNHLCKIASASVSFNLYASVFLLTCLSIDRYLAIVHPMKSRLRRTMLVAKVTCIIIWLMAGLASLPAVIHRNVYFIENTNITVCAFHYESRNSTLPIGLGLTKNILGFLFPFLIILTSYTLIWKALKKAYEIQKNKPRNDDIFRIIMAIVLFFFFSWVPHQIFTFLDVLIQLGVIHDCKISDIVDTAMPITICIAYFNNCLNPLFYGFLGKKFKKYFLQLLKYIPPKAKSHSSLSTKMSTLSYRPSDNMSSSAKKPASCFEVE
Where a name gives a salt, the structure may show the parent alone.
Kindly provide the numeric value in nM only, without the unit symbol.

{"compound": "CCCCc1ncc(/C=C2/C(=O)N(CCCC)C(=O)N2Cc2ccno2)n1Cc1ccc(C(=O)OC)cc1 [Example 106, monohydrochloride]", "tested_target": "AT1 receptor (Rattus norvegicus)", "unit": "nM", "IC50": 10.1}
{"compound": "CCCCc1ncc(/C=C2/C(=O)NC(=O)N2CCC(C)C)n1Cc1ccc(C(=O)O)cc1", "tested_target": "AT1 receptor (Rattus norvegicus)", "unit": "nM", "IC50": 8.8}
{"compound": "CCCCc1ncc(/C=C2/C(=O)N(CCCC(F)(F)F)C(=O)N2CCCC(F)(F)F)n1Cc1ccc(C(=O)OC)cc1 [Example 113, dihydrochloride]", "tested_target": "AT1 receptor (Rattus norvegicus)", "unit": "nM", "IC50": 18.3}
{"compound": "CCCCc1ncc(/C=C2/C(=O)N(CCCC)C(=O)N2Cc2ccc(C)s2)n1Cc1ccc(C(=O)O)cc1", "tested_target": "AT1 receptor (Rattus norvegicus)", "unit": "nM", "IC50": 0.6}
{"compound": "CCCCc1ncc(/C=C2/C(=O)N(CCCC)C(=O)N2Cc2sccc2C)n1Cc1ccc(C(=O)OC)cc1 [Example 72, hydrochloride]", "tested_target": "AT1 receptor (Rattus norvegicus)", "unit": "nM", "IC50": 23.9}
{"compound": "CCCCc1ncc(/C=C2/C(=O)N(CCCC)C(=O)N2Cc2csc(C)n2)n1Cc1ccc(C2(C(=O)OC)CCCC2)cc1 [Example 84, monohydrochloride]", "tested_target": "AT1 receptor (Rattus norvegicus)", "unit": "nM", "IC50": 124}
{"compound": "CCCCCCN1C(=O)/C(=C/c2cnc(CCCC)n2Cc2ccc(C(=O)OC)cc2)N(Cc2csc(C)n2)C1=O [Example 51, dihydrochloride]", "tested_target": "AT1 receptor (Rattus norvegicus)", "unit": "nM", "IC50": 5.33}
{"compound": "CCCCc1ncc(/C=C2/C(=O)NC(=O)N2Cc2cccs2)n1Cc1ccc(C(=O)OC)cc1 [Example 16b]", "tested_target": "AT1 receptor (Rattus norvegicus)", "unit": "nM", "IC50": 6.92}

Per the reported AT1 receptor (Rattus norvegicus) data, CCCCCCN1C(=O)/C(=C/c2cnc(CCCC)n2Cc2ccc(C(=O)OC)cc2)N(Cc2ccccc2)C1=O [Example 50, monohydrochloride] has IC50 of 26.6

Per the reported AT1 receptor (Rattus norvegicus) data, CCCCc1ncc(/C=C2/C(=O)N(CCCC)C(=O)N2Cc2ccccc2Cl)n1Cc1ccc(C(=O)OC)cc1 [Example 61, monohydrochloride] has IC50 of 59.8

Per the reported AT1 receptor (Rattus norvegicus) data, CCCCc1ncc(/C=C2\C(=O)NC(=O)N2Cc2ccc(Cl)cc2)n1Cc1ccc(C(=O)O)cc1 [Example 20a] has IC50 of 3.36

Per the reported AT1 receptor (Rattus norvegicus) data, CCCCc1ncc(/C=C2\C(=O)NC(=O)N2CCCC)n1Cc1ccc(C(=O)OC)cc1 [Example 15a] has IC50 of 10.9

Per the reported AT1 receptor (Rattus norvegicus) data, CCCCc1ncc(/C=C2/C(=O)N(Cc3cccs3)C(=O)N2Cc2cccs2)n1Cc1ccc(C(=O)O)cc1 has IC50 of 1.47
